These data points were gathered from ChEMBL document CHEMBL3853318.

system under test: Rho-associated protein kinase 2 (Homo sapiens)
Sequence (O75116 whole entry): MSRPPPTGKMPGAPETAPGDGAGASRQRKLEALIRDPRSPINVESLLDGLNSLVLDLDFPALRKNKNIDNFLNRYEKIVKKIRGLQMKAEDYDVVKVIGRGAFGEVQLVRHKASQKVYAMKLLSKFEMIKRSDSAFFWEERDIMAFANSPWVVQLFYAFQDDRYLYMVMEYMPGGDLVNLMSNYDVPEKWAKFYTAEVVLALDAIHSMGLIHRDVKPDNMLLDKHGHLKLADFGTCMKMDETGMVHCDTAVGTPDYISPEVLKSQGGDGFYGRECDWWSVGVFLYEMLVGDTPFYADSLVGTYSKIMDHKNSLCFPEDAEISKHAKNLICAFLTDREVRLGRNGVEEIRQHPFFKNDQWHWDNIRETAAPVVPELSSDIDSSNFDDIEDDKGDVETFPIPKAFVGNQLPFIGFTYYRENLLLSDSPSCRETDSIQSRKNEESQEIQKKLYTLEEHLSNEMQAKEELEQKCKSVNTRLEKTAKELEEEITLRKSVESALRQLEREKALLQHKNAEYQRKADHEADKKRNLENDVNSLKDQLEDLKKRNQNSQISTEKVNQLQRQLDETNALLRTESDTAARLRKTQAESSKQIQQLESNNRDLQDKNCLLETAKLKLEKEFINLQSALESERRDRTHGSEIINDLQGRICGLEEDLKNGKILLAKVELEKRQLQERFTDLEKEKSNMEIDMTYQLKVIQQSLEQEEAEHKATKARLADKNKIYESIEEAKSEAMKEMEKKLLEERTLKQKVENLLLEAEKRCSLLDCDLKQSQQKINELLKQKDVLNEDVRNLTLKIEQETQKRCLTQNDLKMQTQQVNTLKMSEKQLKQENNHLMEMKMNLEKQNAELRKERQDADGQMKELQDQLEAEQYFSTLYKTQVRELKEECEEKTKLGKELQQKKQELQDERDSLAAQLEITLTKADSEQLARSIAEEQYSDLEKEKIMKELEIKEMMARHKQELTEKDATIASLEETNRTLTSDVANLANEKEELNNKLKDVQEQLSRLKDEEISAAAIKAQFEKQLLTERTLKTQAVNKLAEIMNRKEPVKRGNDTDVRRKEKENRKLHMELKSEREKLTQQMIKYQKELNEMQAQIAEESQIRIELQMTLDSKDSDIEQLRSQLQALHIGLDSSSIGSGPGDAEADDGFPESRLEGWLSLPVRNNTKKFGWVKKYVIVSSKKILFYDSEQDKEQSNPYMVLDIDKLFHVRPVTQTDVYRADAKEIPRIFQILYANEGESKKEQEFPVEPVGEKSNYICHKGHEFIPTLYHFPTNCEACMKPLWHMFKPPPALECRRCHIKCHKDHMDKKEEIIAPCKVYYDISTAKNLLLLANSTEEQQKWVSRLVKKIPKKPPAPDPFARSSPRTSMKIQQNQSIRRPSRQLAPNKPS
pIC50: −log10 of the molar value.
measure name: pIC50

• Nc1n[nH]c2ccc(C(=O)N3CCC[C@H]3c3ccc(Cl)cc3)cc12 = 5.88

----------
assay protocol: Half life in Wistar rat at 0.2 mg/kg, iv as bolus dose or 0.5 mg/kg, po via gavage
Type: ADME, organism-based
test settings: in vivo
measure name: half-life (min)

* Cc1n[nH]c2ncc(C(=O)N3CCC[C@H]3c3ccc(Cl)cc3)cc12 | 51.6

----------
Attribute: microsomal CLint at 1 µM
assay protocol: Intrinsic clearance in mouse liver microsomes at 1 uM preincubated for 5 mins followed by NADPH addition measured after 5 to 30 mins by LC-MS/MS analysis
Assay type: ADME
test settings: read-out: CLH
measure name: microsomal CLint at 1 µM (µL/min/mg)

- Cc1ncc2sc(C(=O)N3CCCC3c3ccccc3)nn12 (centres undefined): 145
- Nc1n[nH]c2ccc(C(=O)N3CCC[C@H]3c3ccc(Br)cc3)cc12: 14
- O=C(c1ccc2[nH]ncc2c1)N1CCC[C@H]1c1ccc(Cl)cc1: 86
- Cc1ncc2sc(C(=O)N3CCC[C@@H]3c3ccc(Cl)cc3)nn12: 514
- Cc1n[nH]c2ccc(C(=O)N3CCN(C)CC3c3ccc(Cl)cc3)cc12 (centres undefined): 63
- CCOc1ccccc1CNC(=O)c1nn2c(C)ncc2s1: 119
- Cc1n[nH]c2ccc(C(=O)N3CCC[C@H]3c3ccc(Cl)cc3)nc12: 29
- Nc1n[nH]c2ccc(C(=O)N3CC[C@@H](c4ccc(Cl)cc4)C3)cc12: 19
- Nc1n[nH]c2ccc(C(=O)N3CCC[C@H]3c3ccc(Cl)cc3)cc12: 10
- Cc1n[nH]c2ccc(C(=O)N3CC[C@H]3c3ccc(Cl)cc3)cc12: 113
- Nc1n[nH]c2ccc(C(=O)N3CC[C@H]3c3ccc(F)cc3)cc12: 10
- Cc1ncc2sc(C(=O)N3CCC[C@H]3c3ccc(Cl)cc3)nn12: 447
- Cc1ncc2sc(C(=O)N3CCCC3c3ccc(Cl)cc3)nn12 (centres undefined): 388
- Cc1n[nH]c2cnc(C(=O)N3CCC[C@H]3c3ccc(Cl)cc3)cc12: 61
- Cc1n[nH]c2ccc(C(=O)N3CCC[C@H]3c3ccc(Cl)cc3)cc12: 244
- Cc1n[nH]c2ccc(C(=O)N3CCOCC3c3ccc(Cl)cc3)cc12 (centres undefined): 29
- CNc1n[nH]c2ccc(C(=O)N3CCC[C@H]3c3ccc(Cl)cc3)cc12: 31
- Cc1ncc2ccc(C(=O)N3CCC[C@H]3c3ccc(Cl)cc3)cn12: 63
- Cc1nnc2ccc(C(=O)N3CCC[C@H]3c3ccc(Cl)cc3)cn12: 18
- Nc1n[nH]c2ccc(C(=O)N3CCCC[C@H]3c3ccc(F)cc3)cc12: 28
- Cc1ncc2sc(C(=O)N3CCCC3c3ccc(F)cc3)nn12 (centres undefined): 129
